System: MS2 coat protein
MEASUREMENT_NOTES: apparent KD of MS2 coat protein; designed switch direction (-1 OFF switch, 1 ON switch): -1; higher = weaker reporter binding
REPORTED_CONDITIONS: input ligand: FMN 200 uM
MEASURED_PARAMETER: apparent KD of MS2 coat protein (nM)

| SEQUENCE_TEXT | MEASURED_NUMBER |
| --- | --- |
| AACAGUAGAGGAUAUACAUGAGGAUCACCCAUGUGAUAUUUACGUGGCGUACCACGAAGUAGAAGGCUACUGGA [JL Maslow Revisted mod 14] (Eterna round: R96, puzzle: Exclusion 3) | 512 |
| GUUAUGUAAGGAUAUAUGAGUCACGGUGAUACACCGUGAAGAUAGAAGGUACAUGAGGAUCACCCAUGUAAGGC [Mod of Anonveat 10 - Jieux - Exclusion 4] (Eterna round: R97, puzzle: Exclusion 4) | 32.2 |
| ACAUGAGGAUCACCCAUGUCUGGCUGGUCUGCUCCGGUUGUUGAGGAUAUAGUCCGGUGUUCGCGCUAGAAGGUGAGGGCUGGA [Aenatbe mod 40] (Eterna round: R96, puzzle: Exclusion NG 3) | 137 |
| CCAAGCUUCUUCAUUAUCCACAUGAGGAUCACCCAUGUCUUGGCAAUUAUGACCUGCCCGUCAGGAGCUCGUCUUAU [Sensor-V1 #38] (Eterna round: R97, puzzle: Sensor, turn-off variant 1) | 806 |
| GAUCGACAUGAGGAUCACCCAUGUCAGGAUAUCUACAUUGAAGCUUCGGCUUCAAUGUAGAGAAGGGACAUAAU [E1/13-B1] (Eterna round: R97, puzzle: Exclusion 1) | 38.6 |

---

Tested on: MS2 coat protein
MEASUREMENT_NOTES: apparent KD of MS2 coat protein; designed switch direction (-1 OFF switch, 1 ON switch): -1; higher = weaker reporter binding
REPORTED_CONDITIONS: Eterna round: R95; input ligand: FMN 200 uM
Please use yes whenever apparent KD of MS2 coat protein is not below 40 nM, and no whenever it is.

| SEQUENCE_TEXT | TARGET_ENTITY | GROUP |
| --- | --- | --- |
| AAGAGGUCAGGAUAUUGGGCGGAAAGGGAAAGGAAAGGGCCCAAGAAGGGACAUGAGGAUCACCCAUGUAAGAA [Excls4-I] (puzzle: Exclusion 4) | MS2 coat protein | no |
| GUAGAGACAGGAUAUACAUGAGGAUCACCCAUGUAAGGAGGAAGAGAGAGGAGAAGGAGUAGAAGGGUCAGAGG [JR_Exclu3_Sub029] (puzzle: Exclusion 3) | MS2 coat protein | no |
| GAUGCUUCGGCAUCUACAAGCUUUUUGCUCGUCUUAUUAACAUGAGGAUCACCCAUGUACAAGAGACCUCAUGUAUU [Sensor v3 - turn-off variant 2 - 12] (puzzle: Sensor v3, turn-off variant 2) | MS2 coat protein | yes |
| AUUAAAACAUAGGAUAUCGAAAUUAUUAUUUAACGAGAAGGAUGAACAUGAGGAUCACCCAUGUGGUAUCAUGG [Mat - Exclusion 6 - JL Mod - D28] (puzzle: Exclusion 6) | MS2 coat protein | yes |
| CCUCAGUAAGGAUAUCAGCUUAAGGAGGUGGUAAAGAGAGCUGAGAAGGUACAUGAGGAUCACCCAUGUUAAAA [Zatite] (puzzle: Exclusion 4) | MS2 coat protein | yes |
